Experiment Description: Drug transport across human Caco-2 cells
Type: in vitro ADME
Conditions Used: apparent permeability coefficient, apical-to-basal (absorptive), Caco-2 monolayers, pH 7.2, 37° C., read-out: PEAB
Protocol: Assay for Determination of Drug Transport Across Human Caco-2 Cells The assay provides information on the potential of a compound to pass the cell membrane, on the extent of oral absorption as well as on whether the compound is actively transported by uptake and/or efflux transporters. […] Apparent permeability coefficients (PE) of the compounds across the Caco-2 monolayers are measured (pH 7.2, 37° C.) in apical-to-basal (AB) (absorptive) and basal-to-apical (BA) (secretory) transport direction. […]
Recorded Metric: Papp A→B at 10 µM (×10⁻⁶ cm/s)

- Compound: "CN1C(=O)N(c2cccc(C(F)(F)F)c2)C2=C(C(=O)CC2)[C@H]1c1ccc(C#N)cc1-c1ccc(=O)n(C)c1"
  Papp A→B at 10 µM / ×10⁻⁶ cm/s: 6.6

a. CN1C(=O)N(c2cccc(C(F)(F)F)c2)C2=C(C(=O)CCC2)C1c1ccc(C#N)cc1-c1ccn(C)c(=O)c1 (single isomer, unassigned) [Example 20.b]
b. CNC(=O)c1cc(C#N)ccc1[C@@H]1C2=C(CCC2=O)N(c2cccc(C(F)(F)F)c2)C(=O)N1C
QUERY: Hey, which is lower on measured Papp A→B at 10 µM, a or b ? Which one? Tell me its label.
RESULT: a
(a: 6.2 ×10⁻⁶ cm/s, b: 14 ×10⁻⁶ cm/s)

---

System: human hepatocytes
Experiment Description: Metabolic stability with human hepatocytes
Assay type: in vitro ADME
Conditions Used: 1 μM test compound, well stirred model
Recorded Metric: Qh (%)

- Compound: "CN1C(=O)N(c2cccc(C(F)(F)F)c2)C2=C(C(=O)CC2)[C@H]1c1ccc(C#N)cc1-c1ccc(=O)n(C)c1"
  Recorded Metric: "Qh"
  Observed Result: 13
- Compound: "CN1C(=O)N(c2cccc(C(F)(F)F)c2)C2=C(C(=O)CC2)[C@H]1c1ccc(C#N)cc1CNC1CCOCC1"
  Recorded Metric: "Qh"
  Observed Result: 20
- Compound: "Cc1nnc(-c2cc(C#N)ccc2C2C3=C(CCC3=O)N(c3cccc(C(F)(F)F)c3)C(=O)N2C)o1 (stereo not shown)"
  Recorded Metric: "Qh"
  Observed Result: 16
- Compound: "CN1C(=O)N(c2cccc(C(F)(F)F)c2)C2=C(C(=O)CC2)[C@H]1c1ccc(C#N)cc1C(N)=O"
  Recorded Metric: "Qh"
  Observed Result: 12
- Compound: "CN1C(=O)N(c2cccc(C(F)(F)F)c2)C2=C(C(=O)CCC2)C1c1ccc(C#N)cc1-c1ccn(C)c(=O)c1 (single isomer, unassigned)"
  Recorded Metric: "Qh"
  Observed Result: 5

P. CN1C(=O)N(c2cccc(C(F)(F)F)c2)C2=C(C(=O)CC2)C1c1ccc(C#N)cc1-c1cnn(C)c1 (stereo not shown)
Q. CNC(=O)c1cc(C#N)ccc1[C@@H]1C2=C(CCC2=O)N(c2cccc(C(F)(F)F)c2)C(=O)N1C
QUERY: Kindly identify which of P and Q has the larger recorded Qh value. Which one? Tell me its label.
RESULT: P
(P: 24%, Q: 9%)

---

Target Or Test System: cytochrome P450 2C19 (Homo sapiens (Human))
Sequence (P33261 whole entry): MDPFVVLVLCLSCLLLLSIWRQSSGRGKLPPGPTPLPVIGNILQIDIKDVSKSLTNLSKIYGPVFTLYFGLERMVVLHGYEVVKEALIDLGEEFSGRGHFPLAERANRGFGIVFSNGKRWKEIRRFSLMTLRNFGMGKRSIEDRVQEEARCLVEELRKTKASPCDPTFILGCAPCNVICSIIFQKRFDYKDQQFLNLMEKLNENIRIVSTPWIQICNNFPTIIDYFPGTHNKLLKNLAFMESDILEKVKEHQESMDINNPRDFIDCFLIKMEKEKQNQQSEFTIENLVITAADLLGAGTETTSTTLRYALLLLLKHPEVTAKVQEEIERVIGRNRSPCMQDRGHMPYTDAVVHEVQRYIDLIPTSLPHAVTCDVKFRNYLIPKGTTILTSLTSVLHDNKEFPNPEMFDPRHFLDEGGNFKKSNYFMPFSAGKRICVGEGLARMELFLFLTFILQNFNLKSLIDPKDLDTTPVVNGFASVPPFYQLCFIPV
pIC50: −log10 of the molar value.
Recorded Metric: pIC50

QUERY: Fill in the recorded pIC50 for this compound, with cytochrome P450 2C19 (Homo sapiens (Human)) as test system: "CN1C(=O)N(c2cccc(C(F)(F)F)c2)C2=C(C(=O)CC2)[C@H]1c1ccc(C#N)cc1CNC(C)(C)C"
RESULT: < 4.30

---

Target Or Test System: Human neutrophil elastase (Homo sapiens (Human))
Experiment Description: Human Neutrophil Elastase Assay
Conditions Used: substrate MeOSuc-Ala-Ala-Pro-Val-AMC 250 μM, pH 7.5
Recorded Metric: IC50 (nM)

- Molecule: "CCN1CCN(C(=O)c2cc(C#N)ccc2C2C3=C(CCC3=O)N(c3cccc(C(F)(F)F)c3)C(=O)N2C)CC1 (centres unmarked)"
  Target Or Test System: "Human neutrophil elastase (Homo sapiens (Human))"
  IC50 [nM]: 8.1
- Molecule: "CN1C(=O)N(c2cccc(C(F)(F)F)c2)C2=C(C(=O)CC2)C1c1ccc(C#N)cc1C1=CCN(C(=O)OC(C)(C)C)CC1 (centres unmarked)"
  Target Or Test System: "Human neutrophil elastase (Homo sapiens (Human))"
  IC50 [nM]: 1.7
- Molecule: "CN1C(=O)N(c2cccc(C(F)(F)F)c2)C2=C(C(=O)CC2)C1c1ccc(C#N)cc1C(=O)N[C@H]1C[C@@H]1N (some centres unmarked)"
  Target Or Test System: "Human neutrophil elastase (Homo sapiens (Human))"
  IC50 [nM]: 5.6

P. CN1C(=O)N(c2cccc(C(F)(F)F)c2)C2=C(C(=O)CC2)C1c1ccc(C#N)cc1C(=O)N1CCn2cncc2C1 (centres unmarked)
Q. CN1C(=O)N(c2cccc(C(F)(F)F)c2)C2=C(C(=O)CCC2)C1c1ccc(C#N)cc1C1=CCOCC1 (centres unmarked)
QUERY: Hey, which is lower on measured IC50, P or Q ? Which one? Tell me its label.
RESULT: Q
(Q: 1.3 nM, P: 7.1 nM)

---

Target Or Test System: Human neutrophil elastase (Homo sapiens (Human), UniProt P08246)
Sequence (P08246 30-247): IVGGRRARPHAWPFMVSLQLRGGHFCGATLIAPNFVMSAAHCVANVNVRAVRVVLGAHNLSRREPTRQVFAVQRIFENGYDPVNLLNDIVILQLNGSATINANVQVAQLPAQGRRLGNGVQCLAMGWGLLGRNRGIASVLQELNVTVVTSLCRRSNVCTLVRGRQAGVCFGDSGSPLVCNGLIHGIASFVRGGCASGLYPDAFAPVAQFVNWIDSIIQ
Experiment Description: Human Neutrophil Elastase Assay
Conditions Used: substrate MeOSuc-Ala-Ala-Pro-Val-AMC 250 μM, pH 7.5
pIC50: −log10 of the molar value.
Recorded Metric: pIC50

- Compound: "CN1C(=O)N(c2cccc(C(F)(F)F)c2)C2=C(C(=O)CCC2)C1c1ccc(C#N)cc1-c1cncs1 (centres unmarked)"
  pIC50: 8.72
- Compound: "CC1CN(C(=O)c2cc(C#N)ccc2C2C3=C(CCC3=O)N(c3cccc(C(F)(F)F)c3)C(=O)N2C)CCN1 (centres unmarked)"
  pIC50: 7.97
- Compound: "CN1C(=O)N(c2cccc(C(F)(F)F)c2)C2=C(C(=O)CC2)C1c1ccc(C#N)cc1C(=O)NCCO (centres unmarked)"
  pIC50: 8.24

a. CN1C(=O)N(c2cccc(C(F)(F)F)c2)C2=C(C(=O)CC2)C1c1ccc(C#N)cc1C(=O)N1Cc2cnn(C)c2C1 (centres unmarked)
b. CN1C(=O)N(c2ccnc(C(F)(F)F)c2)C2=C(C(=O)CC2)[C@H]1c1ccc(C#N)cc1C(N)=O
c. CN1C(=O)N(c2cccc(C(F)(F)F)c2)C2=C(C(=O)CC2)C1c1ccc(C#N)cc1C(=O)NC1CCC(O)C1 (centres unmarked)
QUERY: Order these by pIC50, descending, and give the full ranking. Provide the labels, sequenced as the question asks.
RESULT: a, c, b

a. CN(CCO)C(=O)c1cc(C#N)ccc1C1C2=C(CCC2=O)N(c2cccc(C(F)(F)F)c2)C(=O)N1C (centres unmarked)
b. CN1C(=O)N(c2cccc(C(F)(F)F)c2)C2=C(C(=O)CC2)C1c1ccc(C#N)cc1C(=O)NCC(=O)N1CCOCC1 (centres unmarked)
QUERY: Kindly identify which of a and b has the larger recorded pIC50 value. Which one? Tell me its label.
RESULT: a

a. CN1C(=O)N(c2cccc(C(F)(F)F)c2)C2=C(C(=O)CC2)C1c1ccc(C#N)cc1C(=O)NCc1cocn1 (centres unmarked)
b. CN(C)C(=O)c1cc(C#N)ccc1[C@@H]1C2=C(CCC2=O)N(c2cccc(C(F)(F)F)c2)C(=O)N1C
QUERY: Kindly identify which of a and b has the larger recorded pIC50 value. Which one? Tell me its label.
RESULT: b

---

Target Or Test System: Human neutrophil elastase (Homo sapiens (Human))
Experiment Description: Human Neutrophil Elastase Assay
Conditions Used: substrate MeOSuc-Ala-Ala-Pro-Val-AMC 250 μM, pH 7.5
pIC50: −log10 of the molar value.
Recorded Metric: pIC50

A. CN1C(=O)N(c2cccc(C(F)(F)F)c2)C2=C(C(=O)CC2)C1c1ccc(C#N)cc1C(=O)N1CCC(N2CCOCC2)C1 (centres unmarked)
B. CN1C(=O)N(c2cccc(C(F)(F)F)c2)C2=C(C(=O)CC2)C1c1ccc(C#N)cc1C(=O)N[C@H]1CCNC1 (some centres unmarked)
C. CN(C)C(=O)c1cc(C#N)ccc1C1C2=C(CCC2=O)N(c2ccnc(C(F)(F)F)c2)C(=O)N1C (centres unmarked)
QUERY: Ranking criterion: pIC50, increasing numeric value. Items: as listed above. Provide the labels, sequenced as the question asks.
RESULT: C, B, A

---

Target Or Test System: Human neutrophil elastase (Homo sapiens (Human))
Experiment Description: Human Neutrophil Elastase Assay
Conditions Used: substrate MeOSuc-Ala-Ala-Pro-Val-AMC 250 μM, pH 7.5
Recorded Metric: IC50 (nM)

# count of solved cases: 3
- Molecule: "CN1C(=O)N(c2cccc(C(F)(F)F)c2)C2=C(C(=O)CC2)C1c1ccc(C#N)cc1C(=O)NCC(C)(C)N (stereo not drawn) [Example 4.11]"
  Unit Label: "nM"
  IC50: 6.2
- Molecule: "CN1C(=O)N(c2cccc(C(F)(F)F)c2)C2=C(C(=O)CC2)C1c1ccc(C#N)cc1C(=O)NC1CCNCC1 (stereo not drawn) [Example 4.2]"
  Unit Label: "nM"
  IC50: 7.1
- Molecule: "CN1C(=O)N(c2ccnc(C(F)(F)F)c2)C2=C(C(=O)CC2)C1c1ccc(C#N)cc1C1=CCN(C(=O)OC(C)(C)C)CC1 (stereo not drawn) [Example 17.2]"
  Unit Label: "nM"
  IC50: 4.6

A. CN1C(=O)N(c2cccc(C(F)(F)F)c2)C2=C(C(=O)CC2)C1c1ccc(C#N)cc1C(=O)NC1CC1 (stereo not drawn) [Example 1.6]
B. CC(=O)N(C)[C@@H]1CCN(C(=O)c2cc(C#N)ccc2C2C3=C(CCC3=O)N(c3cccc(C(F)(F)F)c3)C(=O)N2C)C1 (stereo partly drawn) [Example 1.78]
C. CN1C(=O)N(c2cccc(C(F)(F)F)c2)C2=C(C(=O)CC2)C1c1ccc(C#N)cc1-c1ccncn1 (stereo not drawn) [Example 22]
D. CC(=O)N[C@@H]1CCN(C(=O)c2cc(C#N)ccc2C2C3=C(CCC3=O)N(c3cccc(C(F)(F)F)c3)C(=O)N2C)C1 (stereo partly drawn) [Example 1.84]
E. CN1C(=O)N(c2cccc(C(F)(F)F)c2)C2=C(C(=O)CC2)C1c1ccc(C#N)cc1-c1ccc2occc2c1 (stereo not drawn) [Example 11.15]
QUERY: Order these by IC50, descending, and give the full ranking. Provide the labels, sequenced as the question asks.
RESULT: E, A, C, B, D

A. CN(Cc1ccon1)C(=O)c1cc(C#N)ccc1C1C2=C(CCC2=O)N(c2cccc(C(F)(F)F)c2)C(=O)N1C (stereo not drawn) [Example 1.59]
B. CNCc1cc(C#N)ccc1C1C2=C(CCC2=O)N(c2cccc(C(F)(F)F)c2)C(=O)N1C (stereo not drawn) [Example 9.4]
C. CN1C(=O)N(c2cccc(C(F)(F)F)c2)C2=C(C(=O)CCC2)C1c1ccc(C#N)cc1-c1ccco1 (stereo not drawn) [Example 15.5]
D. CN1C(=O)N(c2cccc(C(F)(F)F)c2)C2=C(C(=O)CC2)C1c1ccc(C#N)cc1CNC(C)(C)C (stereo not drawn) [Example 9.2]
QUERY: Order these by IC50, descending, and give the full ranking. Provide the labels, sequenced as the question asks.
RESULT: C, D, B, A
